STUDY SYSTEM: HIV-1 Env of isolate MGRM-A-009 (pseudovirus) (HIV-1)
METHOD SUMMARY: cell-based or functional assay
Overview of reported IC50 (µg/mL), pseudovirus neutralization across a group of binders:

[
  {
    "BINDER": "PGT-125 (5123_A06) (antibody, V domains shown) VH: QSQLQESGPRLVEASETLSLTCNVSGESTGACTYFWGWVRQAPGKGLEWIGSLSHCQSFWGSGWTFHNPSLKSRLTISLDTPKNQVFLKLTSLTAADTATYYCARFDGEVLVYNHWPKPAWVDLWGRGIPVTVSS VL: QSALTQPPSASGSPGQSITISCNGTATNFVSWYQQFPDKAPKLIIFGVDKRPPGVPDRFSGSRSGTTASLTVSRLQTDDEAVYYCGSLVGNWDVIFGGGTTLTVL",
    "IC50 (µg/mL), pseudovirus neutralization": 0.009
  },
  {
    "BINDER": "PGT-126 (5141_B17) (antibody, V domains shown) VH: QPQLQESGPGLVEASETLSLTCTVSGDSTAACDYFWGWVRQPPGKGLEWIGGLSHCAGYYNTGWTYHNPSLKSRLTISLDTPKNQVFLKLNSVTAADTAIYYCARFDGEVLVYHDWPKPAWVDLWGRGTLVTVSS VL: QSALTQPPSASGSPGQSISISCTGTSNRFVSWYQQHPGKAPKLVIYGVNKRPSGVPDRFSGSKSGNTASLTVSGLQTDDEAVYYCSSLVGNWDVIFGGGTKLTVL",
    "IC50 (µg/mL), pseudovirus neutralization": 0.004
  },
  {
    "BINDER": "PGT-127 (5145_B14) (antibody, V domains shown) VH: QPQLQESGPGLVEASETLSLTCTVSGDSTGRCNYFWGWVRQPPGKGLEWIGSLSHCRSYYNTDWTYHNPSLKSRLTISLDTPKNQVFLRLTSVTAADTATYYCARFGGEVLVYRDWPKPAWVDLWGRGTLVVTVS VL: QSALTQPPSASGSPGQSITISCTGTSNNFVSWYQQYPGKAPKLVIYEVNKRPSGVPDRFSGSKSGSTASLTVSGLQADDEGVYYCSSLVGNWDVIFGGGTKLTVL",
    "IC50 (µg/mL), pseudovirus neutralization": 0.013
  },
  {
    "BINDER": "PGT-123 (4858_P08) (antibody, V domains shown) VH: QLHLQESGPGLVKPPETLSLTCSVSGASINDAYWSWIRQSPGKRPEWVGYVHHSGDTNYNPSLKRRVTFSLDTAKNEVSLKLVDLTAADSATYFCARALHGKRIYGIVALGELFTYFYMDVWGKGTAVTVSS VL: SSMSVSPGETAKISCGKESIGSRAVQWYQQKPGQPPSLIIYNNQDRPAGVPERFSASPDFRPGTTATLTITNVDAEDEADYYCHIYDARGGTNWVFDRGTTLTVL",
    "IC50 (µg/mL), pseudovirus neutralization": 0.004
  }
]

The origin of these recorded values is patent US20250320281A1.
